tested-system: BRDT-BD2 (Homo sapiens (Human))
procedure-summary: AlphaScreen bromodomain proximity assay (competition with biotinylated (+)-JQ1), BRDT-BD2
Lab note: anything with IC50 below 200 nM is marked Fulfilled; values at 200 nM or higher are marked Not fulfilled.

chemical-string: COc1ccc(NC(=O)c2ccc3c(c2)c(-c2ccc(N)cc2C)nn3C)cc1
label-value: Fulfilled

chemical-string: CC(=O)Nc1cc(NC(=O)c2ccc3c(c2)c(-c2ccc(Cl)cc2C)nn3C)ccc1C
label-value: Fulfilled

chemical-string: COc1ccc(NC(=O)c2ccc3c(c2)c(-c2cc4ccccc4n2C)nn3C)c(OC)c1
label-value: Not fulfilled

chemical-string: Cc1ccc(-c2ccc3c(c2)c(-c2ccc(N)cc2C)nn3C)cn1
label-value: Not fulfilled

chemical-string: COc1ccc(NC(=O)c2ccc3c(c2)c(-c2cc4ccccc4n2C)nn3C)cc1
label-value: Fulfilled

chemical-string: CNC(=O)c1ccc(C(=O)Nc2cc(NC(=O)c3ccc4c(c3)c(-c3ccncc3)nn4C)ccc2C)cc1
label-value: Not fulfilled

---

procedure-summary: Metabolic stability assay in human liver microsomes
Assay type: in vitro ADME
condition-info: 2.0 μM, 0.5 mg protein/mL, 37° C., read-out: HLM t1/2
half-life at 2 μM values for the compounds below.
measured-quantity: half-life at 2 μM (min)

compound: CNC(=O)c1ccc(C(=O)Nc2cc(NC(=O)c3ccc4c(c3)c(-c3ccc(C)cc3C)nn4C)ccc2OC)cc1 [compound 5]
measured-quantity: half-life at 2 μM
value-units: min
measurement: 18
//
compound: CNC(=O)c1ccc(C(=O)Nc2cc(NC(=O)c3ccc4c(c3)c(-c3ccccc3C)nn4C)ccc2OC)cc1 [compound 6]
measured-quantity: half-life at 2 μM
value-units: min
measurement: 17

---

tested-system: BRDT-BD2 (Homo sapiens (Human), UniProt Q58F21)
procedure-summary: AlphaScreen bromodomain proximity assay (competition with biotinylated (+)-JQ1), BRDT-BD2

compound: CNC(=O)c1ccc(C(=O)Nc2cc(NC(=O)c3ccc4c(c3)c(-c3ccc(OC)cc3)nn4C)ccc2C)cc1 [compound 11]
comparison-operator: =
IC50 (nM): 521
//
compound: Cc1cc(N)ccc1-c1nn(C)c2ccc(C(=O)Nc3ccc(Cl)cc3)cc12 [compound 64]
comparison-operator: =
IC50 (nM): 209
//
compound: CNC(=O)[C@H]1CC[C@H](C(=O)Nc2cc(NC(=O)c3ccc4c(c3)c(-c3ccc(N)nc3)nn4C)ccc2C)CC1 [compound 49]
comparison-operator: =
IC50 (nM): 68
//
compound: COc1ccc(NC(=O)c2ccc3c(c2)c(-c2cc4ccccc4n2C)nn3C)c(Cl)c1 [compound 36]
comparison-operator: >
IC50 (nM): 1250
//
compound: COc1ccc(NC(=O)c2ccc3c(c2)c(-c2cc4ccccc4n2C)nn3C)cc1F [compound 31]
comparison-operator: =
IC50 (nM): 119
//
compound: CN1CCC(NC(=O)c2ccc3c(c2)c(-c2ccc(N)nc2)nn3C)CC1 [compound 50]
comparison-operator: >
IC50 (nM): 200
//
compound: COc1ccc(NC(=O)c2ccc3c(c2)c(-c2cc4ccccc4n2C)nn3C)c(C)c1 [compound 33]
comparison-operator: =
IC50 (nM): 183
//
compound: COc1ccc(NC(=O)c2ccc3c(c2)c(-c2cc4ccccc4n2C)nn3C)cc1-c1ccccc1 [compound 72]
comparison-operator: =
IC50 (nM): 2390
